Cited source: patent US6403626B1

# melting point listing for each entry below
Counter-ions that a name gives are not always drawn.
Measured metric: melting point

- Brc1c(NC2=NCCN2)ccc2ncn(Cc3ccccc3)c12 (as salt: fumarate): 203 to 205 °C
- CCCCc1cc(NC2=NCCN2)cc2[nH]cnc12 (as salt: fumarate): 115 to 117 °C
- Cn1cnc2c(Br)c(NC3=NCCN3)ccc21: 237 to 238 °C
- CC(C)Cn1cnc2cc(NC3=NCCN3)ccc21 (as salt: fumarate): 185 to 186 °C
- CCCn1cnc2ccc(NC3=NCCN3)cc21 (as salt: fumarate): 198 to 199 °C
- CCCCc1c(NC2=NCCN2)ccc2nc[nH]c12 (as salt: fumarate): 96 °C
- Brc1c(NC2=NCCN2)ccc2ncn(C3CCCC3)c12 (as salt: fumarate): 208 to 210 °C
- Cc1cc(NC2=NCCN2)c(Br)c2[nH]cnc12: 242 to 244 °C
- CCCn1cnc2cc(NC3=NCCN3)ccc21 (as salt: fumarate): 206 to 207 °C
